molecular target: Urease (Canavalia ensiformis); experiment: Inhibition of jack bean urease assessed as ammonia production after 30 mins by indophenol method
Sequence (P07374 whole entry): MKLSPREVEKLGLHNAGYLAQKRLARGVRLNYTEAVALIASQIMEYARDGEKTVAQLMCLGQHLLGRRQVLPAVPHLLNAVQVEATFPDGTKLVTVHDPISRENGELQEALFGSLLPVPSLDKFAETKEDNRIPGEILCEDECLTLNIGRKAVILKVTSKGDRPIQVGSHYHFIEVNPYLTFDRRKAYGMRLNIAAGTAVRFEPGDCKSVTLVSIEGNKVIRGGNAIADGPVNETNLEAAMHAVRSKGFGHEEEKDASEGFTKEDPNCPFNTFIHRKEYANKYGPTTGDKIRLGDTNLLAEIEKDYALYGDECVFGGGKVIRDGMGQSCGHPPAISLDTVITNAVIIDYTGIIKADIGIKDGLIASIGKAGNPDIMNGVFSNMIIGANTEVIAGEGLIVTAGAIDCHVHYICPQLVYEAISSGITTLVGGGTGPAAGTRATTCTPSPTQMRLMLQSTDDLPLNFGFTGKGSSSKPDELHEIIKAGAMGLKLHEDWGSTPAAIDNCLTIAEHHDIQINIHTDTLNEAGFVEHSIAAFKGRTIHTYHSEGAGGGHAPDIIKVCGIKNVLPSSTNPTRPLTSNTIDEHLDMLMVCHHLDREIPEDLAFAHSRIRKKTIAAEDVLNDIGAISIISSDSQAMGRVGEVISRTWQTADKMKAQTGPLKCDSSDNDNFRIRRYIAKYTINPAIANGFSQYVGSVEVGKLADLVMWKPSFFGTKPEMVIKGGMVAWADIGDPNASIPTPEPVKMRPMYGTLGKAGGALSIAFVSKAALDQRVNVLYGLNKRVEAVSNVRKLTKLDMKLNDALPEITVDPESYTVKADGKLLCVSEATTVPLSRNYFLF
Measured IC50, listed per entry for reference.

>  <compound_structure_string>
NC(=S)N/N=C/c1cccc(O)c1O

>  <IC50 / nM>
220

$$$$
>  <compound_structure_string>
NC(=S)N/N=C/c1cccc(Cl)c1

>  <IC50 / nM>
670

$$$$
>  <compound_structure_string>
NC(=S)N/N=C/c1ccccc1Cl

>  <IC50 / nM>
215

$$$$
>  <compound_structure_string>
NC(=S)N/N=C/c1ccc(Br)cc1

>  <IC50 / nM>
707

$$$$
>  <compound_structure_string>
N/C(S)=N/N=C/c1cccc(Br)c1

>  <IC50 / nM>
767

$$$$
>  <compound_structure_string>
NC(=S)N/N=C/C=C/c1ccccc1

>  <IC50 / nM>
457

$$$$

###

molecular target: Urease (Canavalia ensiformis); test: Inhibition of jack bean urease assessed as ammonia production after 30 mins by indophenol method
measured_property: log10(Ki) (log10 of the value in nM)

>  <compound_structure_string>
C/C=C/C=N/NC(N)=S

>  <measured_property>
log10(Ki)

>  <endpoint_value>
2.63

$$$$
>  <compound_structure_string>
NC(=S)N/N=C/c1ccc(Br)cc1

>  <measured_property>
log10(Ki)

>  <endpoint_value>
2.89

$$$$
>  <compound_structure_string>
NC(=S)N/N=C/c1cccc(Cl)c1

>  <measured_property>
log10(Ki)

>  <endpoint_value>
2.80

$$$$
>  <compound_structure_string>
NC(=S)N/N=C/c1ccccc1Cl

>  <measured_property>
log10(Ki)

>  <endpoint_value>
2.23

$$$$
>  <compound_structure_string>
NC(=S)N/N=C/c1ccc(O)cc1

>  <measured_property>
log10(Ki)

>  <endpoint_value>
2.59

$$$$
>  <compound_structure_string>
N/C(S)=N/N=C/c1ccc([N+](=O)[O-])cc1

>  <measured_property>
log10(Ki)

>  <endpoint_value>
2.70

$$$$
>  <compound_structure_string>
NC(=S)N/N=C/c1ccc(Cl)cc1

>  <measured_property>
log10(Ki)

>  <endpoint_value>
2.60

$$$$
>  <compound_structure_string>
NC(N)=S

>  <measured_property>
log10(Ki)

>  <endpoint_value>
4.29

$$$$
>  <compound_structure_string>
COc1cc(/C=N/NC(N)=S)cc(OC)c1O

>  <measured_property>
log10(Ki)

>  <endpoint_value>
2.13

$$$$
>  <compound_structure_string>
CN(C)c1ccc(/C=N/NC(N)=S)cc1

>  <measured_property>
log10(Ki)

>  <endpoint_value>
2.09

$$$$

These entries and their values trace back to ChEMBL document CHEMBL1909545.
